# credit: paper PMC9482650

Target: TJP2_1, Q9UDY2
Sequence (Q9UDY2 24-128): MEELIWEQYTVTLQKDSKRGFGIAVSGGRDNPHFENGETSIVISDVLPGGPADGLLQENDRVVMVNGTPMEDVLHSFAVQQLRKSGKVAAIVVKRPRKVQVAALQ
Assay: holdup assay
Set-up: key: below the threshold = too weak to quantify, mostly under pKd 3.1 to 4
Conditions: plain residues with an end cap or a label only (N-terminal biotin on a linker: ahx)
metric-name: pKd

// solved cases for pKd follow
> print(dat)
                         binder          test.result
1   PKMKLNETSF [SHKBP1, Q8TBC3]  below the threshold
2    HSATSVHTSV [MTMR1, Q13613]  below the threshold
3   SKKNELFSNL [NHERF1, O14745]  below the threshold
4   SAPATLSSRA [PDLIM2, Q96JY6]  below the threshold
5    AKPQPVDSWV [ARVCF, O00192]                 4.77
6  VNENQKEYFF [CNTNAP4, Q9C0A0]  below the threshold
7   YNSFLSVTTV [PDZRN3, Q9UPQ7]  below the threshold
8  ADENEQVSAV [RAPGEF6, Q8TEU7]  below the threshold
9     KDECVIATEV [DLL1, O00548]  below the threshold

Here is another binder to look at.
pKd measured on KEYDDELTFF [USH1C, Q9Y6N9] = below the threshold
